Where do the numbers come from? From ChEMBL document CHEMBL3988442.

# target.or.test.system: Sialic acid-binding Ig-like lectin 9 (Homo sapiens)
# protocol.description: Hs-Siglec9 ALPHAscreen SOP 20170721
# Set-up: scale not given: direction of the effect not stated beside the values
# measurement.conditions: 10 µM
property.measured: Percent Effect (%)

{"molecule": "Cn1c(C2CC2)nc2c1CCN(CCS(=O)(=O)c1ccccc1)C2", "value.unit": "%", "endpoint.value": 1.61}
{"molecule": "Cc1ccc(NC(=O)N2CCC(NC(=O)c3ccc(C)o3)CC2)cc1", "value.unit": "%", "endpoint.value": 4.46}
{"molecule": "CN(Cc1ccc(F)cc1)C(=O)NCC1(N2CCOCC2)CCSC1 (stereo unspecified)", "value.unit": "%", "endpoint.value": 22.3}
{"molecule": "CC(Cn1ccnc1)NC(=O)NCCc1ccc2c(c1)OCCO2 (stereo unspecified)", "value.unit": "%", "endpoint.value": -0.77}
{"molecule": "COc1ccccc1OCc1cc(C(=O)N2C[C@H](O)[C@@H](N(C)C)C2)n[nH]1", "value.unit": "%", "endpoint.value": -3.31}
{"molecule": "COc1cccc(C(=O)N2CCCCC2CNC(N)=O)c1 (stereo unspecified)", "value.unit": "%", "endpoint.value": 4.83}
{"molecule": "CC(NC(=O)NCCn1ccnc1)c1ccc2c(c1)NC(=O)CO2 (stereo unspecified)", "value.unit": "%", "endpoint.value": 0.18}
{"molecule": "CC(C)c1ccc(O)c(C(=O)N2CCN(Cc3cscn3)CC2)c1", "value.unit": "%", "endpoint.value": 10.1}
{"molecule": "Cc1nc(C2CCCN2Cc2ncc(C(C)C)o2)no1 (stereo unspecified)", "value.unit": "%", "endpoint.value": -1.37}
{"molecule": "CC(C)c1cc(NC(=O)CN2CCc3c(nc(C(C)C)n3C)C2)on1", "value.unit": "%", "endpoint.value": 8.75}
{"molecule": "Cc1cc(S(=O)(=O)N2CCc3ccc(F)cc32)cc(C(=O)O)c1C", "value.unit": "%", "endpoint.value": 7.12}
